Below, each entry is listed alongside its reported log10(IC50).
experiment notes: DPPH radical scavenging effect
condition details: samples marked (μM); read-out: SC50 DPPH radical
readout: log10(IC50) (log10 of the value in µM)

compound | readout | observed result
O=C1O[C@H]([C@@H](O)CO)C(O)=C1O [Vit. C, ascorbic acid] | log10(IC50) | 1.47
COC(=O)c1cc(O)c(O)c(O)c1Oc1cc2c(c(O)c1O)-c1c(cc(O)c(O)c1O)C(=O)O[C@@H]1C(COC2=O)OC(O)C(OC(=O)c2cc(O)c(O)c(O)c2)C1OC(=O)c1cc(O)c(O)c(O)c1 (some centres unmarked) [Compound 2] | log10(IC50) | 0.56
Cc1c(C)c2c(c(C)c1O)CCC(C)(C(=O)O)O2 (centres unmarked) [Trolox] | log10(IC50) | 1.68
C[C@@H]1CC[C@]2(C(=O)O[C@@H]3OC(COC(=O)c4cc(O)c(O)c(O)c4)[C@@H](O)[C@H](O)C3O)CC[C@]3(C)C(=CC[C@@H]4[C@@]5(C)C[C@@H](O)[C@H](O)C(C)(C)[C@@H]5CC[C@]43C)[C@@H]2[C@]1(C)O (some centres unmarked) [Compound 1] | log10(IC50) | 1.68
O=c1c(O)c(-c2ccc(O)c(O)c2)oc2cc(O)cc(O)c12 [Quercetin] | log10(IC50) | 1.28

----------
Below, each entry is listed alongside its reported IC50.
experiment notes: Xanthine/xanthine oxidase-induced superoxide anion scavenging effect
Format: biochemical
condition details: samples marked (μM); read-out: SC50 Superoxide anion radical (O2−)
readout: IC50

compound | readout | observed result
O=C1O[C@H]([C@@H](O)CO)C(O)=C1O [Vit. C, ascorbic acid] | IC50 | > 50 µM
Cc1c(C)c2c(c(C)c1O)CCC(C)(C(=O)O)O2 (stereo not shown) [Trolox] | IC50 | > 50 µM
COC(=O)c1cc(O)c(O)c(O)c1Oc1cc2c(c(O)c1O)-c1c(cc(O)c(O)c1O)C(=O)O[C@@H]1C(COC2=O)OC(O)C(OC(=O)c2cc(O)c(O)c(O)c2)C1OC(=O)c1cc(O)c(O)c(O)c1 (stereo partly shown) [Compound 2] | IC50 | 41.1 µM
O=c1c(O)c(-c2ccc(O)c(O)c2)oc2cc(O)cc(O)c12 [Quercetin] | IC50 | > 50 µM

All figures here come from patent US11638737B2.
